# subject.of.test: CX3CR1 (Homo sapiens (Human), UniProt P49238)
# Sequence (P49238 whole entry): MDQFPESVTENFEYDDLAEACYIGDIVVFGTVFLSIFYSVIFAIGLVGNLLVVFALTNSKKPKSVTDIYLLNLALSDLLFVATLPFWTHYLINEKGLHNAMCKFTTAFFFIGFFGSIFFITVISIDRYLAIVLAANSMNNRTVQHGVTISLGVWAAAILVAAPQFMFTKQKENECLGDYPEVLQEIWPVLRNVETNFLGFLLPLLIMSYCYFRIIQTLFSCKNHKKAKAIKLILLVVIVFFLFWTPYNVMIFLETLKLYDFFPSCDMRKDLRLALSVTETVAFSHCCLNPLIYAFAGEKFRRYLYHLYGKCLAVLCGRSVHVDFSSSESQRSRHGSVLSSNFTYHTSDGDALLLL
# protocol.summary: hCX3CR1 [3H]-AZD8797 competitive binding assay (filter)
# experimental.parameters: CHO-hCX3CR1 membranes, 2 nM [3H]-AZD8797
measured.quantity: IC50 (µM)
Numeric only. Scale: µM

Tell me IC50 of CC(C)C[C@H](CO)Nc1nc(C[C@H](C)c2ccc(Cl)cc2F)nc(NS(C)(=O)=O)n1 (single isomer, unassigned) [Example 83] when tested on CX3CR1 (Homo sapiens (Human), UniProt P49238).
0.156

Tell me IC50 of COc1cccc(C(C)Cc2nc(N[C@@H](CO)CC(C)C)nc(NS(C)(=O)=O)n2)n1 (stereo partly shown) [Example 166] when tested on CX3CR1 (Homo sapiens (Human), UniProt P49238).
0.726

Tell me IC50 of CCOc1ccc(C(C)Cc2nc(N[C@@H](CO)CC(C)C)nc(NS(C)(=O)=O)n2)cc1F (stereo partly shown) [Example 119] when tested on CX3CR1 (Homo sapiens (Human), UniProt P49238).
0.335

Tell me IC50 of CC(C)C[C@H](CO)Nc1nc(CC(C)c2cccc(C3(O)CC3)c2)nc(NS(C)(=O)=O)n1 (stereo partly shown) [Example 158] when tested on CX3CR1 (Homo sapiens (Human), UniProt P49238).
2.71

---

# subject.of.test: CX3CR1 (Homo sapiens (Human))
# protocol.summary: hCX3CR1 [3H]-AZD8797 competitive binding assay (filter)
# experimental.parameters: CHO-hCX3CR1 membranes, 2 nM [3H]-AZD8797
# Experimental: hCX3CR1 [^3H]-AZD8797 Competitive Binding Assay (Filter) CHO-hCX3CR1 membranes (9 μg per well) together with 2 nM [^3H]-AZD8797 and different concentrations of competitor compound were incubated in 25 mM HEPES (pH 7.4), 10 mM MgCl2, 1 mM CaCl2) and 0.5% BSA in a Corning polystyrene flat-bottom 96-well plate. […] Scintillation cocktail, Optiphase Supermix (PerkinElmer) was added to each well and the radioactivity was measured using a MicroBeta Trilux reader (PerkinElmer). […]
Please provide measured IC50 for the entries that follow.
Numeric only. Scale: nM

// fetch IC50 given entry CC(C)C[C@H](CO)Nc1nc(CC(C)c2cc(F)c(CO)c(F)c2)nc(NS(C)(=O)=O)n1 (stereo partly shown) [Example 110]
34

// fetch IC50 given entry CC(C)C[C@H](CO)Nc1nc(C[C@@H](C)c2ccc(F)c(Cl)c2)nc(NS(C)(=O)=O)n1 (single isomer, unassigned) [Example 66]
222

// fetch IC50 given entry CC(C)C[C@H](CO)Nc1nc(CC(C)c2cccc(Cl)c2)nc(NS(C)(=O)=O)n1 (stereo partly shown) [Example 72]
340

// fetch IC50 given entry CC(C)C[C@H](CO)Nc1nc(C[C@@H](C)c2c(F)ccc(F)c2F)nc(NS(C)(=O)=O)n1 (single isomer, unassigned) [Example 42]
30

// fetch IC50 given entry Cc1ccc(C(C)Cc2nc(N[C@@H](CO)CC(C)C)nc(NS(C)(=O)=O)n2)cc1C (stereo partly shown) [Example 70]
298

// fetch IC50 given entry CC(C)C[C@H](CO)Nc1nc(CC(C)c2ccc(C(=O)N(C)C)c(F)c2)nc(NS(C)(=O)=O)n1 (stereo partly shown) [Example 116]
282

// fetch IC50 given entry CC(C)C[C@H](CO)Nc1nc(C[C@@H](C)c2cnc(C3CC3)nc2)nc(NS(C)(=O)=O)n1 (single isomer, unassigned) [Example 12]
176

---

# subject.of.test: CX3CR1 (Homo sapiens (Human))
# protocol.summary: PathHunter β-arrestin recruitment assay
# experimental.parameters: CHO-K1 CX3CR1 β-Arrestin cells, with CX3CL1
measured.quantity: EC50
Quick note: unit goes after the number.

Tell me EC50 of COc1ncc([C@H](C)Cc2nc(N[C@@H](CO)CC(C)C)nc(NS(C)(=O)=O)n2)cc1F (single isomer, unassigned) when tested on CX3CR1 (Homo sapiens (Human)).
400 nM

Tell me EC50 of COc1cc(F)c([C@H](C)Cc2nc(N[C@@H](CO)CC(C)C)nc(NS(C)(=O)=O)n2)cn1 (single isomer, unassigned) when tested on CX3CR1 (Homo sapiens (Human)).
100 nM

Tell me EC50 of CC(C)C[C@H](CO)Nc1nc(C[C@@H](C)c2cccc(F)c2F)nc(NS(C)(=O)=O)n1 (single isomer, unassigned) when tested on CX3CR1 (Homo sapiens (Human)).
43 nM

Tell me EC50 of COc1ccc([C@H](C)Cc2nc(N[C@@H](CO)CC(C)C)nc(NS(C)(=O)=O)n2)c(F)n1 (single isomer, unassigned) when tested on CX3CR1 (Homo sapiens (Human)).
50 nM

---

# subject.of.test: CX3CR1 (Homo sapiens (Human), UniProt P49238)
# protocol.summary: hCX3CR1 [125I]-CX3CL1 displacement binding (SPA)
# experimental.parameters: CHO-hCX3CR1 membranes, [125I]-CX3CL1, SPA beads
pIC50: −log10 of the molar value.
Hi, to clarify the labels: met covers pIC50 from 6 upward, not met covers anything below 6.

Is it the case that COc1ncc([C@H](C)Cc2nc(N[C@@H](CO)CC(C)C)nc(NS(C)(=O)=O)n2)cc1C (single isomer, unassigned) has pIC50 reaching or exceeding 6?
not met

Is it the case that COc1ncc([C@H](C)Cc2nc(N[C@@H](CO)CC(C)C)nc(NS(C)(=O)=O)n2)cc1F (single isomer, unassigned) has pIC50 reaching or exceeding 6?
not met

Is it the case that CC(C)C[C@H](CO)Nc1nc(C[C@H](C)c2ccc(Cl)c(Cl)c2)nc(NS(C)(=O)=O)n1 (relative stereo) has pIC50 reaching or exceeding 6?
not met

Is it the case that COc1cc(C)c([C@H](C)Cc2nc(N[C@@H](CO)CC(C)C)nc(NS(C)(=O)=O)n2)cn1 (single isomer, unassigned) has pIC50 reaching or exceeding 6?
not met

Is it the case that CC(C)C[C@H](CO)Nc1nc(C[C@H](C)c2cccc(F)c2F)nc(NS(C)(=O)=O)n1 (single isomer, unassigned) has pIC50 reaching or exceeding 6?
met

Is it the case that CCOc1cc(C(C)Cc2nc(N[C@@H](CO)CC(C)C)nc(NS(C)(=O)=O)n2)ccn1 (stereo partly drawn) has pIC50 reaching or exceeding 6?
not met

Is it the case that CC(C)C[C@H](CO)Nc1nc(C[C@H](C)c2ccccc2F)nc(NS(C)(=O)=O)n1 (single isomer, unassigned) has pIC50 reaching or exceeding 6?
met

Is it the case that COc1ccc([C@@H](C)Cc2nc(N[C@@H](CO)CC(C)C)nc(NS(C)(=O)=O)n2)cn1 (single isomer, unassigned) has pIC50 reaching or exceeding 6?
not met

Is it the case that CC(C)C[C@H](CO)Nc1nc(C[C@@H](C)c2ccc(Cl)c(Cl)c2)nc(NS(C)(=O)=O)n1 (single isomer, unassigned) has pIC50 reaching or exceeding 6?
met

Is it the case that COc1ncc([C@H](C)Cc2nc(N[C@@H](CO)CC(C)C)nc(NS(C)(=O)=O)n2)cc1Cl (single isomer, unassigned) has pIC50 reaching or exceeding 6?
not met

---

# subject.of.test: UniProt:P49238
# protocol.summary: hCX3CR1 [3H]-AZD8797 competitive binding assay (filter)
# experimental.parameters: CHO-hCX3CR1 membranes, 2 nM [3H]-AZD8797
measured.quantity: IC50 (µM)
Numeric only. Scale: µM

// fetch IC50 given entry CC(C)C[C@H](CO)Nc1nc(C[C@H](C)c2cc(F)c(F)c(F)c2)nc(NS(C)(=O)=O)n1 (single isomer, unassigned)
6.41

// fetch IC50 given entry CC(C)C[C@H](CO)Nc1nc(CC(C)c2cccc(-c3ccccc3)c2)nc(NS(C)(=O)=O)n1 (stereo partly shown)
4.35

// fetch IC50 given entry CC(C)C[C@H](CO)Nc1nc(CC(C)c2ccc(C(=O)N3CCOCC3)cc2)nc(NS(C)(=O)=O)n1 (stereo partly shown)
1.96

// fetch IC50 given entry CC(C)C[C@H](CO)Nc1nc(CC(C)c2ccc3ocnc3c2)nc(NS(C)(=O)=O)n1 (stereo partly shown)
0.14

---

# subject.of.test: CX3CR1 (Homo sapiens (Human), UniProt P49238)
# protocol.summary: hCX3CR1 [3H]-AZD8797 competitive binding assay (filter)
# experimental.parameters: CHO-hCX3CR1 membranes, 2 nM [3H]-AZD8797
Label true when IC50 is strictly below 300 nM; at or above that, label false.

Please state whether IC50 is below 300 nM for CC(C)C[C@H](CO)Nc1nc(CC(C)c2ccc(C#N)c(Cl)c2)nc(NS(C)(=O)=O)n1 (stereo partly shown)
false

Please state whether IC50 is below 300 nM for CC(C)C[C@H](CO)Nc1nc(CC(C)c2cccc(C3COC3)c2)nc(NS(C)(=O)=O)n1 (stereo partly shown)
true

Please state whether IC50 is below 300 nM for CC(C)C[C@H](CO)Nc1nc(CC(C)c2cccc3c(=O)n(C)cnc23)nc(NS(C)(=O)=O)n1 (stereo partly shown)
true

Please state whether IC50 is below 300 nM for COc1cc(F)ccc1C(C)Cc1nc(N[C@@H](CO)CC(C)C)nc(NS(C)(=O)=O)n1 (stereo partly shown)
false

Please state whether IC50 is below 300 nM for Cc1ccc(F)c(C(C)Cc2nc(N[C@@H](CO)CC(C)C)nc(NS(C)(=O)=O)n2)n1 (stereo partly shown)
false

Please state whether IC50 is below 300 nM for CC(C)C[C@H](CO)Nc1nc(CC(C)c2cnc3ccccc3c2)nc(NS(C)(=O)=O)n1 (stereo partly shown)
true
